test-target: Aryl hydrocarbon receptor (Homo sapiens) (UniProt P35869)
Sequence (P35869 whole entry, looked up): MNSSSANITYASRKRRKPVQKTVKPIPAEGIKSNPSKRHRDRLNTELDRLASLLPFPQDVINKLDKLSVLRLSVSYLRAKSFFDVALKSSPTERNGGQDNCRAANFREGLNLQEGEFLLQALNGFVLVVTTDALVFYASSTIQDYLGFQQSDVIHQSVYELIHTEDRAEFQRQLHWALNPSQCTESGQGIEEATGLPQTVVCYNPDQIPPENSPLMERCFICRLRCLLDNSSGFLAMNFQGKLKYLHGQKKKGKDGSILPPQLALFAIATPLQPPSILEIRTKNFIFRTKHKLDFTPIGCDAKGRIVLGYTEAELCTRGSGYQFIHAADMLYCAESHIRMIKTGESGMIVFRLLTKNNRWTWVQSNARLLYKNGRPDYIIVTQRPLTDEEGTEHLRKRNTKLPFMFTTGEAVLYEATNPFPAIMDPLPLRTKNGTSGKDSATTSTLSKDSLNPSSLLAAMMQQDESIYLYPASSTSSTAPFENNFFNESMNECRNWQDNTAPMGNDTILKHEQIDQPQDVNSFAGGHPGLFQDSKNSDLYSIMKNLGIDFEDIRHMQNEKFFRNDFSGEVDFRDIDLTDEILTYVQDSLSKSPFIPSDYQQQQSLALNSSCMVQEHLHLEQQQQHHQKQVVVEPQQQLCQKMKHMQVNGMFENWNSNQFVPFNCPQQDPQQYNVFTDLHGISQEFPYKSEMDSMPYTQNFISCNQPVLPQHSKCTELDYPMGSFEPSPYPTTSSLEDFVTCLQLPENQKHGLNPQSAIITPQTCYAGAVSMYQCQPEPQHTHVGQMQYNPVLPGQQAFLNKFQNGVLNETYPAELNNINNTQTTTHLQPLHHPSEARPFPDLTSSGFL
test-summary: qHTS assay to identify small molecule that activate the aryl hydrocarbon receptor (AhR) signaling pathway (AID 743085); further: nearly all actives have a fitted effect of over 15% in size; further: potency means the concentration at half of the fitted maximal effect;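 on activation: HG2L7.5c1 human HepG2 liver cells with stably integrated DRE-driven firefly reporter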
measurement-parameters: HepG2 AhR-luc (HG2L7.5c1), luciferase, 24 h; series mostly up to 70.3 µM
Inconclusive results are not listed. Active and inactive are the calls of the source. The call rests on the fitted dose curve; in most records, active means well fitted activation curve with a large enough effect in the repeat runs; inconclusive means weak or mixed curves; inactive means no such curve, though single readings can be large or run the other way.
property: Potency

Prompt line: // lookup Potency for O=C(Nc1ccccc1)c1cc([N+](=O)[O-])ccc1Cl
Response line: 54.5 µM (active)

Prompt line: // lookup Potency for C=CC(=O)NC(C)(C)C
Response line: inactive

Prompt line: // lookup Potency for C=CC(=O)OCCCCCCCCCC
Response line: inactive
